// data source = the supplement of paper PMC9170038

# Tested on: MS2 coat protein
# experiment notes: apparent KD of MS2 coat protein; higher = weaker reporter binding
# assay setup: Eterna round: R107; input ligand: theophylline 20 uM
measure name: apparent KD of MS2 coat protein (µM)

INSERT INTO measurements (query_sequence, recorded_measurement) VALUES
  ('AAUACCGGUCCUCGAAGCAUGGGUGAUCAACGAGGACCGGUACGGCCGCCACUCGAUAACAUGAGGAUCACCCAUGUAAUAAUAA [|T''-M''-Trp-Ms2|_Design5]', 0.395),
  ('GAUAUAACAAAAGUUGUAUCAGUGGGUGAACGAGGACCGGUACGGCCGCCACUCGGACAUGAGGAUCACCCAUGUCCAUGUGAAA [AstrosExyTryA#18]', 0.0231),
  ('GAUCUUGCGGGCGCCCGCAAGGUUGCGGAUACCAGCGAGAUUAAUCGCCCUUGGCAGCCGAACAUGAGGAUCACCCAUGUCGGAC [Same State - Theophylline A Attempt #2 (HarryS)]', 0.0115),
  ('AAGGUGAUCCGUGAUACCAGCUCAACAUGAGGAUCACCCAUGUAAGCCUGGAAACAGGCGAGCCCUUGGCAGCACGGUUGCCAAG [(M)''-(Theo1)-(Ms2)-(Theo2)-(M'''')-(T2)''_Design1]', 0.138),
  ('UGUAUGGACUGAAGGAGCGGGUUGAUAUCAUGAGGAUCACCCAUGGAAAAGGCGAAAGCCGCCCAGGUAGGUCGCAGUCCAUACU', 0.038),
  ('AAUUAUCAGUCGGCCGCCACUGACACAUGAGGAUCACCCAUGUAACAUGGGUAAAAUUAACUGAACAGGACCGGGACAAAGGCUA [JR_ExcTryptoB_Sub008]', 0.671),
  ('UAAUAUCACAUAUUAUGGGUGUAAUGUGAUACCAGCUAGGAAACUAGCCCUUGGCAGCACAUGAGGAUCACCCAUGUAAGCUGUA [(T1)''-(M)''-(T1)-(T2)-(M1)-(M2)-(T2)''_Design4_2/19/17]', 0.123),
  ('UCGGGCAGAGCGGCCGCCACUGUAUGGCGUGCGGAUGACGGAACAUGAGGAUCACCCAUGUUGUUUAGGACCGGGCUUGCCGCGA [cocmullin]', 0.0147),
  ('CCCAGUCAUAACAAAGCAAAUAUACUCGAAGGAGCGUCAUAGUAGGCAGGUAGGUCGCGAGACAUGAGGAUCACCCAUGUAGAGA [zrzmullin]', 0.0332),
  ('AGAUUCGACACGGCCGCCACUCGUGGAGGAUUUCCGAGUGUCGAACAUGAGGAUCACCCAUGUACGAGGACCGGGUGUUGAGUCU [XTryp B #14]', 0.0434),
  ('AGUAGACACGCGGCCGCCACUUGAGGAUCACCCAGGUGGUGUGUACUUGAAAACAAGUGCACAUCAAGGACCGGGCGUGUCUACA [Omei Tryp B SS D v2]', 0.0171),
  ('AAUGUGAAGGCGGCCGCCACUGAUAAUAGACAUGAGGAUCACCCAUGUAUAAAUCCUCAAUAAGACAGGACCGGGCCAACUACGU [Exclusion Tryptophan B GF 1]', 0.114),
  ('ACACGGAAUGAUGGAUCACCUCGUUAAUAACGAGGACCGGUACGGCCGCCACUCGAAAACCGUGACCUGUACGAAAAGUGCAGGA [TrypAS 15 #SwitchBubble #HomemadeMS2 #StaticStrem #MS2Early]', 0.314),
  ('AGCUCGACUCGCAGCUGGAUGCCCGCUUGCCGAGGACCGGUACGGCCGCCACUCGUCACUCGACAUGAGGAUCACCCAUGUGAUA [theeternabot_exclusion_MS2_Trp_A_32]', 0.136),
  ('ACGACGCAUAGUGAUACCAGCACAACAUGAGGAUCACCCAUGUCACAUAUGUUGUAAUAAUGCCCUUGGCAGCACUAUGCGUCAG [SSTheo B #2]', 0.0833),
  ('UCACGUGGGAAUGAUACCAGCCACAUGAGGAUCACCCAUGUGCAUGGUGUGAGCUUCACGGGCCCUUGGCAGCAUUUCAAGUCGC [Agelaus]', 0.0931),
  ('AGCGCUAUGCAUGAUACCAGCUACAUGAGGAUCACCCAUGUGCGUCAGAAAUGACUGUGUAGCCCUUGGCAGCAUAAAGCAUGUA [Exclusion - Theophylline B (Freestyle 9)]', 0.0241),
  ('GGGUCGCGUUCGGCCGCCACUUGGAAACAUGAGGAUCACCCAUGUCAUAUGGUGGGACAUGUUGUAAGGACCGGGAACCGUCCUA [theeternabot_exclusion_MS2_Trp_B_11]', 0.0821),
  ('ACCGCAUCCGUAUAGGAUGCGGCCCAUGAAGGAGCGUGGGAAACCACAGGUAGGUCGCAUGACAUGAGGAUCACCCAUGUUUAUU [Matrix]', 0.0527),
  ('ACAUGAGGAUCACCCAUGUAUGACUAUCCUCGAGGACCGGUACGGCCGCCACUCGAACGAGUGGCUCGCGAGUGCGCACUCGCGA [5'' end]', 0.0166),
  ('UGUAUGUGAUUUGAUACCAGACCAGCUGGUGUUACAAGAGGAUCACCCUUGUAGGUUUGGGUCCCUUGGCAGCAAAUCGCAUACU [SS Theo B #24 Ms4]', 0.135),
  ('GGUCUCGAGAGCGAUACCAGCUUGAUCGUACUGGCCUGGUACAUGAGGAUCACCCAUGUAAGCCCUUGGCAGCGCUCUCGAGACC [#1 Exclusion - Theophylline B Attempt #7 (HarryS)]', 0.0156);

###

# System: MS2 coat protein
# experiment notes: apparent KD of MS2 coat protein; designed switch direction (-1 OFF switch, 1 ON switch): 1; higher = weaker reporter binding
# assay setup: Eterna round: R95; input ligand: FMN 200 uM
Short version: apparent KD of MS2 coat protein at least 40 nM is yes (1), less is no (0).

INSERT INTO results (query_sequence, group) VALUES
  ('UUAAAACAUGAGGAUCACCCAUGUCAACAAAGUCGAGGAUAUGGGCAAAUAAAAUAAGAACCAGAAGGCGAAUAAU [salish99_SS1_r3_006] (puzzle: Same State 1)', 'no (0)'),
  ('GAAGAACAUGAGGAUCACCCAUGUAAGCGGAAGCUAGGAUAUGCGGGAAAGAAAAGAGAAGCAGAAGGAGUAGGAA [JR_SS1_Sub028] (puzzle: Same State 1)', 'no (0)'),
  ('UCUUGGUUUUUGCUCGUUUUUUGUGUUGAACAUGAGGAUCACCCAUGUAUUGUACGGUCCGAUUUAAUAAUGGUCCA [JMF 38] (puzzle: Sensor for hsa-mir-208a)', 'no (0)'),
  ('AAUUCACGAGCACAGGAUAUGCUUGCCAACACAUGAGGAUCACCCAUGUCGGGCUACUAAUAAGAGCAGAAGGGUGACUCAUGAU [Esticece] (puzzle: Same State 2)', 'no (0)'),
  ('AAGAAUCUAUCUCAGGAUAUCAUGUCAAAGACAUGAGGAUCACCCAUGUACCAGGAAACUGGUUAUGAGAAGGGAGAUAGAUUCA [Mat - Same State 2 - Mod - D31] (puzzle: Same State 2)', 'yes (1)');

###

Measured apparent KD of K4 kissing-loop reporter by item
# Tested on: K4 kissing-loop RNA reporter;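 further: bound reporter read as fluorescence of individual clusters on recovered sequencing chips by microscopy, with normalized cluster intensities fitted with a binding model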
# experiment notes: apparent KD of K4 kissing-loop reporter; higher = weaker reporter binding
# assay setup: Eterna round: R107; input ligand: tryptophan 2.4 mM
measure name: apparent KD of K4 kissing-loop reporter (nM)

INSERT INTO assay_data (query_sequence, recorded_measurement) VALUES
  ('CACCUGCCAUAAGGAUAUUCGUCUUUGCGCUUCCAGUGAUGUUGGAGAUCGCAACACAUGGUCAUAGAAGAAGGUAUGGUAUUAA [theeternabot_sameState_KL_FMN_B_35]', 186),
  ('GGACUCAAAUGUAGUGAUGUUACAAGCGAUACCAGUAUCUAACAUUACCCUUGGCAGCGCGCCCAGCUCAGCAAAUUAGAUAGCG [theeternabot_sameState_KL_Theo_A_43]', 114),
  ('UUAGAGAUCUCAGGAUAUCAGUGAUGUUGGUGUGCAGAUCUGAGAUAGAAUUCUAUCUCAGAUCAAUGAGAAGGGAGAUCUCAUU [AK5 Exc FMN B]', 142),
  ('UAUUCUGUUCGAAAGAACGGAAUUUCGGAAGGAGCGAGAGAAAUCUCAGGUAGGUCGCCGAAAUUAUUAGGUAGUGAUGUUACCU [Arginine A K4 5]', 123),
  ('AUUUUGAGUGAUGUUCAUAUCUAUUCUGAAGGAGCGCUAAAUAAGGCAGGUAGGUCGCGGAAUAUAUAUAUAUAUAUAUAUAUAU [KL-SSArg-A30]', 537),
  ('UUACGAGUGAUGUUCGAAUAAAUCCAUUCAGAGGAUAUAGUAUUAACUAGAAGGCUGAAACCAACUUCGAGUGAUGUUCGAGGAU [Same State FMN A GF 3]', 90.8),
  ('UCGAGUUGACGAAGAGUCAACUCGUGUGAUACCAGUGACGAAAGUCACCCUUGGCAGCACUAUGCUAGUGAUGUUGGUAUUUAAG [#08 K4 Theophylline A Same State]', 127),
  ('AAACGCUGGAUGAAUAACAUCUAGCGAAUUCGAGGACCGGUACGGCCGCCACUCGAGCUAACUGCGAGUGAUGUUCGAUAAUAAA [Mat - Mod of OpenEnded 3 - D1]', 80.9),
  ('CGAGUGAUGUUCGAAGAGUUGUUAAGCGAUACCAGCUAGGAAACUGGCCCUUGGCAGCGUAAUAAGUAAAUAAAUAAAUGAUCAC [whbob_Ex_Theo_A_th63]', 337),
  ('AUGGUGGAUCAGUGAUGUUGGUGGAGUAGGUAGGAUAUGAGUGAUGUUAGAAGGAUCGGAGUGAUGUUCCAGGUGGUUGUGUUGU [KL-SSFMN-A3]', 389),
  ('AAGCUACGCGCGGCCGCCACUGUUUAUGUAUAAAUGCGUCGCUCACUGCUUUAGUGAUGUUGAAGCAGGACCGGGCGAAUGGUAC [theeternabot_exclusion_KL_Trp_B_15]', 82.7),
  ('UCUGGAGGAUAUGAUACCAGCAGUGAGAGAGAGGAAGUAUAGUGAUGUUAUAUGAGAGAAUGCCCUUGGCAGCGUGUGUAGUGGG [SSTheophylB.L]', 86.6);
